# TARGET ENTITY: glucagon receptor (GCGR) (human, UniProt P47871 26-477)
# Sequence (P47871 26-477): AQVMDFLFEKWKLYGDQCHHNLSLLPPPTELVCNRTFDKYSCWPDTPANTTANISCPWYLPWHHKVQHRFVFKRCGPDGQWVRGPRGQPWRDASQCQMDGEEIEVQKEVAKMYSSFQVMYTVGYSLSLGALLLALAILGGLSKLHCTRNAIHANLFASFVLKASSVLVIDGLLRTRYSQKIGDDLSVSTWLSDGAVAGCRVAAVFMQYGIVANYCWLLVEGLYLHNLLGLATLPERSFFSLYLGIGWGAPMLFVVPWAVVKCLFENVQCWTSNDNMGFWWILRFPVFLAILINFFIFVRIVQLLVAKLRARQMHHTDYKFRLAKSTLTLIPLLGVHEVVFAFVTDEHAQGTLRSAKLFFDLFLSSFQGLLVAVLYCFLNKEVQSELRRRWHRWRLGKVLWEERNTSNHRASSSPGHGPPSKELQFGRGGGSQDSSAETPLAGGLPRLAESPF
# ASSAY INFO: cell-based or functional assay
Starred links: 1 amine or outer side, 2 acyl side, 3 side chain; linkers in the order of their positions; H or OH if unused. Non-standard residues stand in square brackets, D forms with d. Groups on a side chain read outwards from the residue. Primed or numbered codes have the meaning given here. No end group written: not given here. *: point of attachment. Dodecanoyl(12-OPh(4-COOH)) = O=C(O)c1ccc(OCCCCCCCCCCCC(=O)*)cc1; γGlu = O=C(O)[C@H](CCC(=O)[*:2])N[*:1]; Stearoyl = CCCCCCCCCCCCCCCCCC(=O)*; αMeF = C[C@](N)(Cc1ccccc1)C(=O)O; αMeK = C[C@](N)(CCCCN)C(=O)O; αMeS = C[C@](N)(CO)C(=O)O; PEG2′ = not defined here; Aib = CC(C)(N)C(=O)O
TEST READOUT: cAMP Primary assay EC50 Gluc-R (2nd)

The examples below pair each entry with its known result.
H[Aib]EGS[αMeF]TSDV[αMeS]S[αMeF]LEGEAA[αMeK]E[αMeF]IA[αMeF]VK([PEG2′-PEG2′-γGlu-Stearoyl])[αMeK]GG-NH2 [SEQ ID NO 102] :: 25.2 nM
H[Aib]EGS[αMeF]TSDVK([PEG2′-PEG2′-γGlu-Stearoyl])S[αMeF]LEGEAA[αMeK]E[αMeF]IA[αMeF]VV[αMeK]GG-NH2 [SEQ ID NO 118] :: 25.2 nM
H[Aib]EGS[αMeF]TSDV[αMeS]S[αMeF]LEGEAAK([PEG2′-PEG2′-PEG2′-Dodecanoyl(12-OPh(4-COOH))])E[αMeF]IA[αMeF]VV[αMeK]GG-NH2 [SEQ ID NO 145] :: 25 nM

# context switch: different binder, same cAMP Primary assay EC50 Gluc-R (2nd)
Query: Supply reported cAMP Primary assay EC50 Gluc-R (2nd) belonging to this binder: H[Aib]EGS[αMeF]TSDV[αMeS]S[αMeF]LEGEAA[αMeK]E[αMeF]IA[αMeF]K([PEG2′-PEG2′-γGlu-Stearoyl])V[αMeK]GG-NH2 [SEQ ID NO 103]
Result: 25.2 nM
